B1: VPS39 (parent)
chain: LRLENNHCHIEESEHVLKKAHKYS

- Variants of: B1
- Assay name: protein stability index of a GFP-peptide fusion (GPS, HEK-293T) (PSI 1-6); higher = more stable;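 further: lentivirally expressed fusions sorted by FACS into six bins by GFP to DsRed ratio, PSI derived from sequencing read proportions per bin multiplied by bin number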
- Run parameters: c terminus: a fixed tail appended
In this section we review reported protein stability index values for a set of variants.
Endpoint name: protein stability index

{"columns": ["Variant label", "Measured number"],
 "data": [
  ["H7Q", 2.34],
  ["H21M", 1.81],
  ["E11P", 2.26],
  ["L3R", 4.51],
  ["N5F", 1.27],
  ["L3P", 3.7],
  ["E14Q", 2.1],
  ["Y23C", 2.25],
  ["K22G", 2.96],
  ["V16I", 2.29],
  ["E14T", 1.78],
  ["H15M", 3.02],
  ["C8I", 2.15],
  ["E11L", 2.86],
  ["A20V", 2.52],
  ["H21V", 3.04],
  ["N6H", 3.16],
  ["H9M", 2.42],
  ["S13Q", 1.82],
  ["L1N", 3.65],
  ["L1Q", 4.08],
  ["E12I", 1.96],
  ["E14G", 2.56],
  ["K22E", 2.4],
  ["S13K", 2.92],
  ["A20T", 2.43],
  ["V16F", 3.08],
  ["N5L", 2.23],
  ["A20Q", 1.45],
  ["E12F", 1.24],
  ["L1S", 4.19],
  ["L17P", 2.14],
  ["K19E", 2.45],
  ["H7K", 2.84],
  ["R2F", 2.62],
  ["N6K", 3.49],
  ["E14R", 2.06],
  ["N6I", 2.33],
  ["H21R", 2],
  ["H21I", 1.38],
  ["E4D", 3.12],
  ["E14A", 2.38],
  ["R2S", 3.62],
  ["Y23G", 2.75],
  ["A20M", 1.98],
  ["H7L", 2.32],
  ["K22P", 2.79],
  ["S24G", 2.84],
  ["L3A", 3.55],
  ["K19D", 2.59],
  ["E12M", 2.68],
  ["Y23R", 2.25],
  ["I10P", 3.1],
  ["L3K", 4.32],
  ["N6T", 2.35],
  ["L1K", 4.2],
  ["H9R", 2.83],
  ["A20K", 2.13],
  ["A20P", 2.23],
  ["H7V", 2.35],
  ["N5K", 3.08],
  ["A20F", 2.24],
  ["L17D", 3.68],
  ["V16H", 2.02],
  ["E11K", 2.79],
  ["Y23V", 2.05],
  ["L17Q", 2.4],
  ["K18M", 2.12],
  ["S13L", 1.95],
  ["E12D", 3.1],
  ["H21S", 2.29],
  ["L17I", 2.35],
  ["C8Y", 1.86],
  ["S24F", 2.37],
  ["K22L", 1.99],
  ["H15I", 2.41],
  ["N6E", 3.13],
  ["K18I", 2.26],
  ["E11V", 1.97],
  ["E14N", 2.31],
  ["R2K", 3.12],
  ["E12A", 2.19],
  ["E11D", 2.65],
  ["E12K", 2.94],
  ["E12Q", 2.15],
  ["L17E", 2.88],
  ["E4L", 2.35],
  ["K22Q", 2.12],
  ["E11G", 2.72],
  ["L17G", 2.84],
  ["H15E", 2.6]
]}
